Target: T1, human GIP receptor (human) (UniProt P48546)
T1 sequence (looked up): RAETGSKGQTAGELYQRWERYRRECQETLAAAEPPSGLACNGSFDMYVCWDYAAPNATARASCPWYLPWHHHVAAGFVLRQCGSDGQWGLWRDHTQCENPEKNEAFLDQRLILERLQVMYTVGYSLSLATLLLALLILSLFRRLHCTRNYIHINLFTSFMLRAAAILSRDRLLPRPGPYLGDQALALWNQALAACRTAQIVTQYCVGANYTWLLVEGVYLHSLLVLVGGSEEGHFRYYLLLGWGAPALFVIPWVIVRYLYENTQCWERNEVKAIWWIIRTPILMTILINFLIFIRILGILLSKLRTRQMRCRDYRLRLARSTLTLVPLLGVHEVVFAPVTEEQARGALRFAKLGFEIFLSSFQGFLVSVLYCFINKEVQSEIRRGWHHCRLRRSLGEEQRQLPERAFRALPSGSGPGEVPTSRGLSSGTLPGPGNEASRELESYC
Experiment: cell-based or functional assay
For each entry below, report its cAMP EC50 value.
// return numeric value only (unit: nM, not printed)

// recorded cAMP EC50 for IP351 (Fc fusion) YSEGTFISDYSIAMDKIHQQDFVNWLLAQKPSSGAPPPSGGGGSGGGGSGGGGSGGGGSACPPC : 0.0036

// recorded cAMP EC50 for IP389 (Fc fusion) YSEGTFISDYSIAMDKIHQQDFVNWLLAQKGGGGGSGGGGSGGGGSGGGGSGGGGSGGGGSGGGGSACPPC : 0.0027

// recorded cAMP EC50 for IP197 (Fc fusion) YSEGTFTSDVSSYMERQAIDEFIAWLLAGAAAGGSGSTASSGSGSATGGGGAATHTCPPCPAPEF : 0.18

// recorded cAMP EC50 for IP314 (Fc fusion) YSEGTFISDYSKLLAAAAVRDFVNWLLAGGGGGGGSGGGGSGGGGSGGGGSATHTCPPC : 0.23

// recorded cAMP EC50 for IP368 (Fc fusion) YSEGTFTSDYRQAIDRQAIDEFIAWLLKGGGGGGGSGGGGSGGGGSGGGGSACPPC : 0.2
